Values from paper PMC8550878

MEASURED ON: hMcl-1 (residues 172–323) with N-terminal His tag (human, UniProt Q07820 172-323)
Sequence (Q07820 172-323): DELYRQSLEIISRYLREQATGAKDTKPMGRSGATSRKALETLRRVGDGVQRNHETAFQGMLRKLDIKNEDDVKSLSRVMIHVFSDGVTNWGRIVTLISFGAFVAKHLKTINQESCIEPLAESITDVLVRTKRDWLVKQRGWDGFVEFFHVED
EXPERIMENT: DELFIA displacement assay
Would you mind telling me the reported pIC50 of each entry?
Answers are plain numbers, as −log10 of the molar value.

[
  {
    "BINDER": "Ac-AIAEALRRIGDAF-NH2 [peptide 10]",
    "pIC50": 6.58
  },
  {
    "BINDER": "H-AIAEQLRRIGDAF-NH2 [peptide 11]",
    "pIC50": 6.50
  }
]

# context switch: different binder, same pIC50
// recorded pIC50 for H-AIAQALRRIGDAL-NH2 [peptide 4] : 5.92
